pIC50: −log10 of the molar value.
Please provide measured pIC50 for the entries that follow.

Hey, Human HDAC7 aa 518-end (Homo sapiens) data for O=C(NO)c1cc(F)c2c(c1)CCN1CCC[C@@H]21 (single isomer, unassigned) : pIC50 came out at 6.00 to 7.00

Hey, Human HDAC7 aa 518-end (Homo sapiens) data for O=C(NO)c1cc(F)c2c(c1)C[C@@H]1CC3(CCCCC3)CN1C2 (single isomer, unassigned) : pIC50 came out at 5.00 to 6.00

Hey, Human HDAC7 aa 518-end (Homo sapiens) data for O=C(NO)c1ccc(CN2C[C@H]3CC[C@@H]2CO3)c(F)c1 (single isomer, unassigned) : pIC50 came out at 5.00 to 6.00

Hey, Human HDAC7 aa 518-end (Homo sapiens) data for C[C@@H]1C[C@H]2c3c(F)cc(C(=O)NO)cc3CCN2C1 (single isomer, unassigned) : pIC50 came out at 6.00 to 7.00
